Target: human GABAA α2β2γ1 receptor (Homo sapiens (Human), UniProt P47869+Q8N1C3)
Test: Radioligand binding assay for γ1-containing GABAA subtypes, [3H]RO7239181 competition (α2β2γ1)
Settings: Ki h-GABAA α2β2γ1, [3H]RO7239181 competition binding, human GABAA α2β2γ1
# if measured Ki < 6 nM: rule met  # else: rule not met

In [3]: df
Out[3]:
                                    compound      category
 0  C[C@@H]1N=C(c2c(F)cccc2F)c2c(ccc(Cl)c2Cl)-n2nc(C(=O)N3CC[C@H](F)C3)nc21 [Example 80]  rule not met
 1  COC1CN(C(=O)c2cn3c(n2)CN=C(c2c(F)cccc2F)c2c-3ccc(Cl)c2Cl)C1 [Example 2]  rule not met
 2  C[C@@H]1N=C(c2c(F)cccc2F)c2c(ccc(C(F)(F)F)c2Cl)-n2nc(NC(=O)NC3CC3)nc21 [Example 126]  rule not met
 3  C[C@@H]1N=C(c2c(F)cccc2F)c2c(ccc(Cl)c2Cl)-n2nc(C(=O)N3CCS(=O)(=O)CC3)nc21 [Example 36]      rule met
 4  C[C@@H]1N=C(c2c(F)cccc2F)c2c(ccc(Cl)c2Cl)-n2nc(C(=O)NC[C@@H](C)O)nc21 [Example 65]      rule met
 5  C[C@@H]1N=C(c2c(F)cccc2F)c2c(ccc(C(F)(F)F)c2Cl)-n2ccnc21 [Example 150]  rule not met
 6  C[C@@H]1N=C(c2ncccc2F)c2c(ccc(Cl)c2Cl)-n2nc(C(=O)N3CC(O)C3)nc21 [Example 44]  rule not met
 7  C[C@H](O)CNC(=O)c1nc2n(n1)-c1ccc(Cl)c(Cl)c1C(c1c(F)cccc1F)=N[C@H]2C [Example 63]      rule met
 8  C[C@@H]1N=C(c2c(F)cccc2F)c2c(ccc(Cl)c2Cl)-n2nc(C(=O)N3CC(O)C3)nc21 [Example 25]      rule met
 9  C[C@@H]1N=C(c2c(F)cccc2F)c2c(ccc(C(F)(F)F)c2Cl)-n2cc(CO)nc21 [Example 149]  rule not met
10  C[C@@H]1N=C(c2c(F)cccc2F)c2c(ccc(Cl)c2Cl)-n2nc(NC(=O)N3CC(F)C3)nc21 [Example 57]  rule not met
11  C[C@@H]1N=C(c2c(F)cccc2F)c2c(ccc(Cl)c2Cl)-n2nc(C3COC3)nc21 [Example 81]  rule not met
12  C[C@@H]1N=C(c2c(F)cccc2F)c2c(ccc(Cl)c2Cl)-n2nc(C(N)=O)nc21 [Example 35]  rule not met
13  Cc1nc2n(n1)-c1ccc(Cl)c(Cl)c1C(c1ncccc1F)=N[C@H]2C [Example 84]  rule not met
14  C[C@@H]1N=C(c2ncccc2F)c2c(ccc(Cl)c2Cl)-n2nc(C(=O)NC3CC3)nc21 [Example 88]  rule not met
15  CO[C@H]1CCN(C(=O)c2nc3n(n2)-c2ccc(Cl)c(Cl)c2C(c2c(F)cccc2F)=N[C@H]3C)C1 [Example 45]      rule met
16  C[C@@H]1N=C(c2ncccc2F)c2c(ccc(Cl)c2Cl)-n2nc(C(=O)N3CCC3)nc21 [Example 42]  rule not met
17  C[C@@H]1N=C(c2c(F)cccc2F)c2c(ccc(Cl)c2Cl)-n2nc(CO)nc21 [Example 13]      rule met
18  C[C@@H]1N=C(c2ncccc2F)c2c(ccc(Cl)c2Cl)-n2nc(C(=O)N3CC[C@H](F)C3)nc21 [Example 79]  rule not met
19  CNS(=O)(=O)c1nc2n(n1)-c1ccc(Cl)c(Cl)c1C(c1c(F)cccc1F)=N[C@H]2C [Example 73]  rule not met
20  CCOC1CN(C(=O)c2nc3n(n2)-c2ccc(C(F)(F)F)c(Cl)c2C(c2ncccc2F)=N[C@H]3C)C1 [Example 137]  rule not met
21  O=C(c1nc2n(n1)-c1ccc(Cl)c(Cl)c1C(c1c(F)cccc1F)=NC2)N1CC(O)C1 [Example 24]      rule met
22  C[C@@H]1N=C(c2c(F)cccc2F)c2c(ccc(Cl)c2Cl)-n2nc(C(=O)N3CC[C@H](O)C3)nc21 [Example 43]      rule met
23  C[C@@H]1N=C(c2ncccc2F)c2c(ccc(C(F)(F)F)c2Cl)-n2cc(C(=O)N[C@H]3C[C@H](O)C3)nc21 [Example 165]  rule not met
24  C[C@@H]1N=C(c2c(F)cccc2F)c2c(ccc(Cl)c2Cl)-n2nc(C(=O)N3CC4(CCCCO4)C3)nc21 [Example 96]  rule not met
25  C[C@@H]1N=C(c2c(F)cccc2F)c2c(ccc(C(F)(F)F)c2Cl)-n2c(CO)cnc21 [Example 132]  rule not met
26  O=C(c1nc2n(n1)-c1ccc(Cl)c(Cl)c1C(c1c(F)cccc1F)=NC2)N1CCC1 [Example 8]  rule not met
27  [2H]C([2H])([2H])NC(=O)c1nc2n(n1)-c1ccc(Cl)c(Cl)c1C(c1c(F)cccc1F)=N[C@H]2C [Example 20]      rule met
